Test: Human HepG2 cell viability assay in 384 well format
Assay type: toxicity, cell-based
Design: dose 125 nL, time 70.5 hour; concentration not given beside the values
Conditions: HepG2 cells, read-out: Inhibition
Recorded measurements of cytotoxicity at 70.5 h, one per entry
State the answer as a number, implicitly in %.

{"columns": ["compound", "cytotoxicity at 70.5 h / %"],
 "data": [
  ["Cc1ccccc1-c1cncc(C2CCN(C(=O)CN(C)C)CC2)n1", 23.3],
  ["CCn1cc2c(n1)C(COCC1CC1)CN(C(=O)c1ccsc1)C2 (stereo unspecified)", -10.1],
  ["CC(C)C(C)(O)CNc1cccc(F)c1C#N (stereo unspecified)", -7.64],
  ["CCc1nc(CN(C)C2CCN(Cc3ccc(Cl)s3)C2)no1 (stereo unspecified)", 8.41],
  ["Cc1cc(CN(C)c2nc(-c3ccco3)nc3c2CCN(C)CC3)on1", -22.6],
  ["CC(c1ccncc1)N(CCN(C)C)C(=O)Nc1ccc(Cl)c(Cl)c1 (stereo unspecified)", -11.5],
  ["CCc1ccc(C(=O)N2CCC(O)(CN3CCOCC3)C(C)(C)C2)[nH]1 (stereo unspecified)", -9.84],
  ["CC(C)[C@H]1CN(CCCO)C[C@@H]1NC(=O)CCC(F)(F)F", -7.33]
]}

What the record says about c1cc2c(cc1C1CCCN1Cc1nnnn1C1CC1)OCCO2 (stereo unspecified) : cytotoxicity at 70.5 h is 13.7

Please fill in: cytotoxicity at 70.5 h reported for Cc1ccc(C(=O)N(C)S(C)(=O)=O)cc1Cl = -1.55

Entry O=C(C1CCCO1)N1CCCn2c(nnc2Cn2cccn2)C1 (stereo unspecified) , cytotoxicity at 70.5 h reported as -10.9

----------
Measured cytotoxicity at 70.5 h, listed per entry.
Experiment: Human HepG2 cell viability assay in 384 well format
Type: toxicity, cell-based
Parameters: dose 125 nL, time 70.5 hour; concentration not given beside the values
Details: HepG2 cells, read-out: Inhibition
Expressed in %, but write only the number.

{"columns": ["compound", "quantitative result"],
 "data": [
  ["Cc1ccc(N2CCCC(N(C)Cc3noc(C4CC4)n3)C2)nn1 (stereo unspecified)", -9.69],
  ["COc1cc(C(=O)N2CC3(CCNCC3)c3cc(Cl)ccc32)ccn1", -6.87],
  ["c1ccc(OCCN2CCCC(c3noc(C4CC4)n3)C2)cc1 (stereo unspecified)", -0.448],
  ["c1cncc(-c2noc(CN3CCc4cncnc4C3)n2)c1", -12.6],
  ["CC(CNC(=O)c1cccc(C#N)c1)N1CCc2ccccc21 (stereo unspecified)", -11.4]
]}

Per the records, this compound ( O=C(Nc1c(N2CCCC2)cccc1N1CCCC1)c1cnccn1 ) has cytotoxicity at 70.5 h equal to -14.4

Recorded result, COc1cc(Oc2ccc(C(F)(F)F)cn2)ccc1CN1CCCC1 , cytotoxicity at 70.5 h: -10.7

Input CC(C)c1noc(C(C)N2CCN(CCCN3CCCC3=O)CC2)n1 (stereo unspecified) . Output cytotoxicity at 70.5 h: -0.928

So, Cc1ccc(NC2CCN(C(=O)COC3CCCC3)CC2)nn1 ? Its cytotoxicity at 70.5 h was -8.07

Lab note: measured cytotoxicity at 70.5 h of COc1ccc2cc(CN(C)C(C)c3nc(C4CC4)no3)ccc2c1 (stereo unspecified) was -0.253

// cytotoxicity at 70.5 h lookup, compound = c1ccc(-c2cnc(CNC3CCCN(c4cccnn4)C3)o2)cc1 (stereo unspecified) , result: -4.5
